Protocol summary: compounds altering in vitro BBB leakiness – cell-based, FITC-avidin fluorescence, HTS, primary screen (AID 1963498); further: test concentration not given here
Assay context: brain endothelial barrier, actives lie on both sides
Active and inactive are the calls of the source. No stated cut-off is given here; in the data, active means fold change permeability below about 0.7 or above about 1.3; inactive means in between.
Please state which outcome applies, choosing from active, inactive

What did the test return for CN1Cc2sccc2C(c2ccc(O)c(O)c2)C1 (stereo unspecified) ?
inactive

Which outcome was entered for the molecule Brc1c(NC2=NCCN2)ccc2nccnc12 in this test?
active

Per the records of this test, what outcome belongs to Oc1ccc(/C=C/c2cc(O)cc(O)c2)cc1 ?
active

Identify the outcome logged in this assay for the molecule shown: CC(=O)NNC(=O)N1Cc2ccccc2Oc2ccc(Cl)cc21
active

Which outcome was entered for the molecule Cc1nc(N=Nc2ccc(S(=O)(=O)O)cc2S(=O)(=O)O)c(COP(=O)(O)O)c(C=O)c1O in this test?
inactive

# lookup: test call for CCCCCCCC/C=C\CCCCCCCC(=O)NCCO
inactive

----------
Protocol summary: compounds altering in vitro BBB leakiness – cell-based, FITC-avidin fluorescence, HTS, primary screen (AID 1963498); further: test concentration not given here
Assay context: brain endothelial barrier, actives lie on both sides
Endpoint label: fold change permeability
Answer as a number with no unit attached.

In plain terms, C[C@H]1CC(=O)Nc2cc(C(=O)NCCC3CC3)ccc2N1C(=O)N1CC2CC2C1 (some centres not stated) has a documented fold change permeability of 1.1

Record CC(C)c1cc(/C=C(\C#N)C(=O)NCCCc2ccccc2)cc(C(C)C)c1O . Reported fold change permeability: 0.8

Entry [Li+] ; fold change permeability = 1

What the record says about CC(=O)C1=C(C)N(c2cccc(C(F)(F)F)c2)C(=O)N[C@@H]1c1ccc(C#N)nc1 : fold change permeability is 1.1

// recorded fold change permeability for CC[N+](CC)(CC)CC(=O)Nc1c(C)cccc1C : 1.5

Memo: CN(C)[C@@H]1C(=O)C(C(N)=O)=C(O)[C@@]2(O)C(=O)C3=C(O)c4c(O)ccc(Cl)c4[C@@H](O)[C@H]3C[C@@H]12 , reported fold change permeability: 1

Summary for this compound, Cc1cc(Cl)ccc1OCCCC(=O)NO : fold change permeability is 1

Entry O=C(Nc1ccccc1)c1cc([N+](=O)[O-])ccc1Cl , fold change permeability reported as 1.5

Record summary for COC(=O)Nc1nc2ccc(C(=O)c3cccs3)cc2[nH]1 : reported fold change permeability = 1.4

The compound listed as O=C(CCCCCN1CCN(c2ccccc2-c2ccccc2)CC1)NC1CCCc2ccccc21 (configuration not stated) shows fold change permeability equal to 1.1

Value of fold change permeability reported for the compound O=C(O)CSCC(=O)NC1CCSC1=O (configuration not stated) is 1.7

Kindly note the recorded fold change permeability for FC(F)(F)c1ccccc1-n1ccnc1 , which is 1.2

----------
Protocol summary: compounds altering in vitro BBB leakiness – cell-based, FITC-avidin fluorescence, HTS, primary screen (AID 1963498); further: test concentration not given here
Assay context: brain endothelial barrier, actives lie on both sides
Activity calls are given as the source filed them. No stated cut-off is given here; in the data, active means fold change permeability below about 0.7 or above about 1.3; inactive means in between.
Pick one: active, inactive

Status in this test for CC(C[N+](C)(C)C)OC(N)=O (configuration not stated) ?
inactive

Please indicate how the test categorized O=C(Nc1nc2ccccc2n1CCN1CCOCC1)c1cccc([N+](=O)[O-])c1 .
active

Called result for NCCCC(=O)O
inactive

Hi, sorry to bother you, what did the test record for Cc1c(C(=O)N2CCOc3ccc(-c4ccc(N)nc4)cc3C2)ccc(S(C)(=O)=O)c1F ?
inactive

Outcome logged for CCC(C)N(C)C(=O)c1cc2ccccc2c(-c2ccccc2Cl)n1 (configuration not stated) in this assay:
inactive

Tell me the recorded outcome of this test for Cc1cc(Nc2cc(N3CCN(C)CC3)nc(Sc3ccc(NC(=O)C4CC4)cc3)n2)n[nH]1 .
active

Record request — test call for CC(C)(C)c1cc(/C=C(\C#N)C(N)=S)cc(C(C)(C)C)c1O
active

Identify the outcome logged in this assay for the molecule shown: O=C(C1CCCCC1)N1CC(=O)N2CCc3ccccc3C2C1 (configuration not stated)
inactive

Which outcome did this test record for the molecule O=C(c1ccccc1)c1ccc2n1CCC2C(=O)O (configuration not stated) ?
active

What did the test return for COc1ccc2c(c1)c(CC(=O)O)c(C)n2C(=O)c1ccc(Cl)cc1 ?
active

What call does the record list for COc1ccccc1N1CCN(CCCCN2C(=O)c3ccccc3C2=O)CC1 ?
inactive

// param item: CC(=O)OCC(=O)[C@@]1(O)CC[C@H]2[C@@H]3CCC4=CC(=O)CC[C@]4(C)[C@H]3C(=O)C[C@@]21C ; yields the recorded call
inactive

// return assay outcome for Cc1ccc(C(=O)Nc2cnc(N3CCC(C(N)=O)(N4CCCCC4)CC3)c(C(=O)O)c2)cc1
inactive

Call for entry CNCCC(Oc1ccccc1C)c1ccccc1 (configuration not stated) :
active

Give the logged outcome of this assay for the following molecule: NC(=Nc1ccc(OCCCCCOc2ccc(N=C(N)c3ccccc3)cc2)cc1)c1ccccc1
inactive

Dear colleague, could you share the recorded outcome for CCCCOc1ccc(CC/C=C2\SC(=O)N(CCN)C2=O)cc1 when you have a moment?
active

Hello, I am checking results. What call was entered for O=C1NCC2(CCN(CCc3ccccc3)CC2)O1 ?
inactive

// return assay outcome for COc1ccc(S(=O)(=O)Nc2nc(-c3cccc([N+](=O)[O-])c3)cs2)cc1OC
inactive

Test call, this molecule: C[n+]1cc2c3c(ccc2c2ccc4cc5c(cc4c21)OCO5)OCO3
active

Per the records of this test, what outcome belongs to CC(C)C[C@H](C(=O)O)c1cc(-c2ccc(C(F)(F)F)cc2)cc(-c2ccc(C(F)(F)F)cc2)c1 ?
inactive

Record lookup: outcome of this test for Nc1nc2c(cnn2CCc2ccccc2)c2nc(-c3ccco3)nn12 ?
active

Identify the outcome logged in this assay for the molecule shown: CCN(c1nc(N)c(C(=O)N=C(N)N)nc1Cl)C(C)C
active
